- PROCEDURE SUMMARY: AUC (0-infinity) in mouse at 50 mg/kg, po
- Format: ADME, organism-based
- Parameters: time infinity, dose 50 mg/kg, route oral
- REPORTED CONDITIONS: plasma
EXPERIMENTAL ENDPOINT: AUC(0-inf) (µM·h)
Just the number please, in µM·h, no unit attached.

Enquiry: What value of AUC(0-inf) has been reported for the following compound? Cc1cn2c(-c3cn[nH]c3)cnc2c(Nc2cc([C@@H](C)N3C[C@@H](C)O[C@@H](C)C3)ns2)n1
Return: 86.4

* * *

- PROCEDURE SUMMARY: Oral bioavailability in mouse at 50 mg/kg, po
- Format: ADME, organism-based
- REPORTED CONDITIONS: in vivo
EXPERIMENTAL ENDPOINT: bioavailability (%)
Just the number please, in %, no unit attached.

Enquiry: What value of bioavailability has been reported for the following compound? Cc1cn2c(-c3cn[nH]c3)cnc2c(Nc2cc([C@@H](C)N3C[C@@H](C)O[C@@H](C)C3)ns2)n1
Return: 92
